- Experiment description: AUC (0 to t) in Sprague-Dawley rat at 2 mg/kg, iv administered […] by LC-MS/MS analysis
- Type: ADME, organism-based
- Conditions used: in vivo
Quantity kind: AUC(0-t) (ng·h/mL)
Your answer should be a plain number; it is taken to be in ng·h/mL.

Which AUC(0-t) is reported for this compound? Cc1ccc(C(=O)Nc2ccc(Cl)cc2)cc1C#Cc1cc(-c2cnn(C)c2)cnc1N
729

###

- Experiment description: AUC (0 to t) in Sprague-Dawley rat at 5 mg/kg, po administered via gavage by LC-MS/MS analysis
- Assay type: ADME, organism-based
- Conditions used: in vivo
Quantity kind: AUC(0-t) (ng·h/mL)
Your answer should be a plain number; it is taken to be in ng·h/mL.

Which AUC(0-t) is reported for this compound? Cc1ccc(C(=O)Nc2ccc(Cl)cc2)cc1C#Cc1cc(-c2cnn(C)c2)cnc1N
634

###

- Experiment description: Oral bioavailability in Sprague-Dawley rat at 5 mg/kg administered via gavage by LC-MS/MS analysis
- Assay type: ADME, organism-based
- Conditions used: in vivo
Quantity kind: bioavailability (%)
Your answer should be a plain number; it is taken to be in %.

Which bioavailability is reported for this compound? Cc1ccc(C(=O)Nc2ccc(Cl)cc2)cc1C#Cc1cc(-c2cnn(C)c2)cnc1N
34.8

###

- Experiment description: MRT (infinity) in Sprague-Dawley rat at 2 mg/kg, iv administered […] by LC-MS/MS analysis
- Type: ADME, organism-based
- Conditions used: in vivo
Quantity kind: MRT inf (h)
Your answer should be a plain number; it is taken to be in h.

Which MRT inf is reported for this compound? Cc1ccc(C(=O)Nc2ccc(Cl)cc2)cc1C#Cc1cc(-c2cnn(C)c2)cnc1N
2.3

###

- System under test: c-KIT (Homo sapiens, UniProt P10721)
- Sequence (P10721 whole entry): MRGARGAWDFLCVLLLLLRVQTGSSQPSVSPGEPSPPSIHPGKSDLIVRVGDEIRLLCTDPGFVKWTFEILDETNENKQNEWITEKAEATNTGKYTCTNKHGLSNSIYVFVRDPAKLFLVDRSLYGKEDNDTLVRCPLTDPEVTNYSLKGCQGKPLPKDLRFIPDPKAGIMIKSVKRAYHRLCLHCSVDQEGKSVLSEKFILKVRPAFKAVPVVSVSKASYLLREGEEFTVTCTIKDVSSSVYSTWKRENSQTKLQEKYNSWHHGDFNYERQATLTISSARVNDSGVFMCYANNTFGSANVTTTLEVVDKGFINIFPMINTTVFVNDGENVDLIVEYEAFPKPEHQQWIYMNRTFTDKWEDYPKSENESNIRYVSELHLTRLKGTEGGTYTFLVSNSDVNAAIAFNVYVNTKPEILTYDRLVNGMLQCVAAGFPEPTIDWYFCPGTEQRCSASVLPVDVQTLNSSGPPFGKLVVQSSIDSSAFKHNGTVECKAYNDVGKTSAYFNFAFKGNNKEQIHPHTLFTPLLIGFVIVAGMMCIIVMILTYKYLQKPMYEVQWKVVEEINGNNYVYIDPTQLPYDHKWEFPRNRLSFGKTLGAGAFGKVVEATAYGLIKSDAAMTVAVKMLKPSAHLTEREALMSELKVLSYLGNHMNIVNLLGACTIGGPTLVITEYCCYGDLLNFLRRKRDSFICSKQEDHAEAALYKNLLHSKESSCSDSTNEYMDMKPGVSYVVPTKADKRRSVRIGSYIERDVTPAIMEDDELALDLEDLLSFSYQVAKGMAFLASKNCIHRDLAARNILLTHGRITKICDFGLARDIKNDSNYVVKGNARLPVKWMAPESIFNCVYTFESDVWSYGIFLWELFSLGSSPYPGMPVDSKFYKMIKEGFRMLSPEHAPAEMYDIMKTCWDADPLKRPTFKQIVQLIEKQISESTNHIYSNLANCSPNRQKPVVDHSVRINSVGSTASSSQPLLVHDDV
- Experiment description: Inhibition of recombinant human N-terminal GST-tagged c-KIT (544 to end residues) expressed in baculovirus infected Sf21 insect cells at 1000 nM using poly (Glu, Tyr)4:1 as substrate measured after 1 hr by ELISA relative to control
- Conditions used: probe poly (Glu, Tyr)4:1
Quantity kind: inhibition at 1 h, 1 µM (%)
Your answer should be a plain number; it is taken to be in %.

Which inhibition at 1 h, 1 µM is reported for this compound? Cc1ccc(C(=O)Nc2ccc(Cl)cc2)cc1C#Cc1cc(-c2cnn(C)c2)cnc1N
98.2

###

- System under test: Fibroblast growth factor receptor 2 (Homo sapiens)
- Sequence (P21802 whole entry, the tested form may be a part): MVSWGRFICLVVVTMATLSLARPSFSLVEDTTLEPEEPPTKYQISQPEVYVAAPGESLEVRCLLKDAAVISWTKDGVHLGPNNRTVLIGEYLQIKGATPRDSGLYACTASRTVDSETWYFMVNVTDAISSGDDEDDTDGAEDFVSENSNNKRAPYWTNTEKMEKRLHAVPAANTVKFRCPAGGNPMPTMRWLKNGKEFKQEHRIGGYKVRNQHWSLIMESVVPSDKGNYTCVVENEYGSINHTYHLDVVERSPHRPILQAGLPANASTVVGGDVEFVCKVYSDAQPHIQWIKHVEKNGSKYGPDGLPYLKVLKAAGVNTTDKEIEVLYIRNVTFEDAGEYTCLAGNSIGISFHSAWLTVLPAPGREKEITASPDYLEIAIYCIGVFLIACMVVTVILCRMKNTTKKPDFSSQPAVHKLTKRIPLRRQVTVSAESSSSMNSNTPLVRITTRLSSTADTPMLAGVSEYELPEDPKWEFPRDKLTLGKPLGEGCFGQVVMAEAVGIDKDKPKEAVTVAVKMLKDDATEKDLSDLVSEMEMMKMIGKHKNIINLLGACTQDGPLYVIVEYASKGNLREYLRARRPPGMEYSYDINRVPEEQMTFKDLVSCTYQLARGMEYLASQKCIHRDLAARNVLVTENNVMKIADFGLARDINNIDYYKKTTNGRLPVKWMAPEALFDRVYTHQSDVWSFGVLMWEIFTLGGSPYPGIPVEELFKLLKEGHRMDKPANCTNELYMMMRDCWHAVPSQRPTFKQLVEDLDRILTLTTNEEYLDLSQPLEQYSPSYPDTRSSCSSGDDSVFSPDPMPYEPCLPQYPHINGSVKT
- Experiment description: Inhibition of recombinant human N-terminal His6-tagged FGFR2 (456 to 770 residues) expressed in baculovirus infected Sf21 insect cells using poly (Glu, Tyr)4:1 as substrate measured after 1 hr by ELISA
Quick reference: IC50 of the listed items.

Which IC50 is reported for this compound? Cc1ccc(C(=O)Nc2ccc(Cl)cc2)cc1C#Cc1cc(-c2cnn(C)c2)cnc1N
> 1000 nM

Could you now consider this next compound?
Which IC50 is reported for this compound? COc1cc(NC(=O)c2ccc(C)c(C#Cc3cncc4ccccc34)c2)cc(OC)c1
> 1000 nM

###

- System under test: c-KIT (Homo sapiens)
- Experiment description: Inhibition of recombinant human N-terminal GST-tagged c-KIT (544 to end residues) expressed in baculovirus infected Sf21 insect cells at 100 nM using poly (Glu, Tyr)4:1 as substrate measured after 1 hr by ELISA relative to control
- Conditions used: probe poly (Glu, Tyr)4:1
Quantity kind: inhibition at 1 h, 0.1 µM (%)
Your answer should be a plain number; it is taken to be in %.

Which inhibition at 1 h, 0.1 µM is reported for this compound? Cc1ccc(C(=O)Nc2ccc(Cl)cc2)cc1C#Cc1cc(-c2cnn(C)c2)cnc1N
100
